Origin of measurements: patent US9273028B2

endpointName: IC50

Tested on Lck (Homo sapiens), the item O=C([C@H](Nc1cc(Cl)cc(Cl)c1)C1CC1)N1CCC2CCN(c3ncnc4[nH]ccc34)C2C1 (stereo partly shown) showed IC50 equal to 100 to 999 nM

Lab note: molecule `CC(C)CN(CC(C)C)S(=O)(=O)c1ccccc1NCC(=O)N1CCC[C@@H](Nc2ncnc3[nH]ncc23)C1` tested on Lck (Homo sapiens); recorded IC50 was 1000 to 10000 nM

Query O=C(CNc1ccccc1S(=O)(=O)c1ccccc1)N1CCC2CCN(c3ncnc4[nH]ccc34)C2C1 (stereo not shown) on Lck (Homo sapiens); IC50 returned: > 10000 nM

Record O=C(CNc1cc(Cl)cc(Cl)c1)N1CCC2CCN(c3ncnc4[nH]ccc34)C2C1 (stereo not shown) has Lck (Homo sapiens) IC50 equal to 100 to 999 nM
